As shown below, each of these compounds has a reported IC50 value.
- study.system: hA2BR (Homo sapiens)
- Construct: expressed in transfected cells; host or cells: cells stably expressing the receptor and the GloSensor biosensor (CHO)
- Sequence (P29275 whole entry): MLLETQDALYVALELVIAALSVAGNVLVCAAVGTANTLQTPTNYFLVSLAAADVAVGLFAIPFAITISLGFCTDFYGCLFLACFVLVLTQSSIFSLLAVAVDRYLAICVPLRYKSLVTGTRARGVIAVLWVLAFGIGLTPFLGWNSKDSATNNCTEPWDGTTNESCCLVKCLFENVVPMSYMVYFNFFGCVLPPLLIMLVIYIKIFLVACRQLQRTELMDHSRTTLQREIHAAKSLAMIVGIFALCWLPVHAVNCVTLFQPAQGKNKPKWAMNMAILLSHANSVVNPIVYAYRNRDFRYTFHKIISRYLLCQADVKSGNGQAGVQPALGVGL
- assay.summary: Inhibition of NECA-stimulated adenylyl cyclase activity in CHO cells expressing hA2BR (GloSensor cAMP assay)
- Assay type: cell-based
- measurement.setup: means ± SE
test.readout: IC50

[
  {
    "given.smiles": "COC(=O)c1c(C(=O)OC)c2cc(C(=O)OC(C)C)ccn2c1C(=O)c1ccc(C)cc1",
    "test.readout": "IC50",
    "meas.value": "> 30000 nM"
  },
  {
    "given.smiles": "CCOC(=O)c1cc(C(=O)c2ccccc2)n2ccc(C(=O)OC(C)C)cc12",
    "test.readout": "IC50",
    "meas.value": "> 30000 nM"
  },
  {
    "given.smiles": "CCOC(=O)c1cc(C(=O)c2ccc(F)cc2)n2ccc(C(=O)OC(C)C)cc12",
    "test.readout": "IC50",
    "meas.value": "> 30000 nM"
  }
]
